- Test system: A673/TR/shEF
- protocolNotes: cell viability (LOESS-normalised, relative to median of negative controls) (log2 ratio); higher = more viable cells (less compound effect), active = hit call of the paper (over 3 MAD below the median)
- experimentalConditions: 2.5 µM; library screen: screen1; EWS-FLI1 expression: high (no doxycycline); treatment time: 72 h
The campaign covered roughly 3,200 compounds. About 300 (9.4%) showed activity. What follows is part of a selection rich in actives, with near analogues and random picks from the rest.
measuredMetric: cell viability (log2)

INSERT INTO assay_data (compound, reportedresult) VALUES
  ('CC(=O)Oc1cc(OC(C)=O)c2c(c1)OC(c1ccc(OC(C)=O)c(OC(C)=O)c1)C(OC(C)=O)C2 (centres undefined)', 0.18),
  ('Cc1cc(O)c(C)c2c1C(=O)Oc1c(C)c(O)c(C(=O)O)c(C)c1O2', 0.0454),
  ('O=C1Nc2ccc(I)cc2/C1=C/c1cc(Br)c(O)c(Br)c1', 0.0489),
  ('CO/N=C(\C(=O)N[C@@H]1C(=O)N2C(C(=O)O)=C(CSc3nc(=O)c(=O)[nH]n3C)CS[C@H]12)c1csc(N)n1', 0.082),
  ('C#CCN(C)Cc1ccccc1', 0.175),
  ('CC(=O)OCC(=O)[C@@]1(O)CC[C@H]2[C@@H]3CC[C@@H]4C[C@H](O)CC[C@]4(C)[C@H]3C(=O)C[C@@]21C', 0.109),
  ('CN(Cc1ccccc1)C(=O)C=Cc1ccc([N+](=O)[O-])cc1', 0.013),
  ('COc1cccc(N2C(=O)C(=Cc3cccc(O)c3)SC2=S)c1', 0.133),
  ('CC(C)c1c(C(=O)Nc2ccccc2)c(-c2ccccc2)c(-c2ccc(F)cc2)n1CC[C@@H](O)C[C@@H](O)CC(=O)O', 0.147);

----------
- Test system: A673/TR/shEF
- protocolNotes: cell viability (LOESS-normalised, relative to median of negative controls) (log2 ratio); higher = more viable cells (less compound effect), active = hit call of the paper (over 3 MAD below the median)
- experimentalConditions: 0.25 µM; library screen: screen1; EWS-FLI1 expression: high (no doxycycline); treatment time: 72 h
In all, about 3,200 compounds went through this assay and about 300 (9.4%) showed activity. Many of the other results were omitted from the sample, so actives are more common in it than they were.
Below, each of the molecules is paired with its reported cell viability (log2) value.
measuredMetric: cell viability (log2)

INSERT INTO measurements (molecule, measuredmetric, reportedresult) VALUES
  ('NC(N)=NCCNS(=O)(=O)c1cccc2cnccc12', 'cell viability (log2)', 0.259),
  ('COc1ccc2c(c1)CCC1=CC(=O)CCC12C (stereo not given)', 'cell viability (log2)', 0.119),
  ('COC(=O)[C@@H]1OC(=O)C2OC23[C@@]1(C)CCC1[C@@]2(C)CCC(=O)C(C)(C)C2C[C@@H](OC(C)=O)[C@]13C (stereo not given in full)', 'cell viability (log2)', 0.0302),
  ('Cc1sc2c(=O)n3c(nc2c1C(=O)NCCc1ccccc1)CCCCC3', 'cell viability (log2)', 0.129),
  ('C[C@H](NCCc1ccc(O)cc1)[C@H](O)c1ccc(O)cc1', 'cell viability (log2)', 0.119),
  ('O=S(=O)(NCCNC/C=C/c1ccc(Br)cc1)c1cccc2cnccc12', 'cell viability (log2)', 0.096),
  ('COc1cc(/C=C/C(=O)/C=C(O)/C=C/c2ccc(O)c(OC)c2)ccc1O', 'cell viability (log2)', 0.0822),
  ('C[S+]([O-])c1ccc(-c2nc(-c3ccc(F)cc3)c(-c3ccncc3)[nH]2)cc1 (stereo not given)', 'cell viability (log2)', 0.263),
  ('CCN(CC)S(=O)(=O)c1ccc(C(=O)N(CCC(=O)OC)c2ccccn2)cc1', 'cell viability (log2)', 0.0834),
  ('O=[N+]([O-])c1ccc(Oc2ccc(Br)cc2)c(C(O)[P+](=O)O)c1 (stereo not given)', 'cell viability (log2)', 0.235);

Attribution: the supplement of paper PMC6089552
